The reported numbers originate from patent US20240239788A1.

target or test system: KRAS protein containing G12D mutation (Homo sapiens (Human), UniProt P01116, G12D)
Sequence (P01116 other isoform, or with tags, fused parts or gaps G12D (already in the parent)): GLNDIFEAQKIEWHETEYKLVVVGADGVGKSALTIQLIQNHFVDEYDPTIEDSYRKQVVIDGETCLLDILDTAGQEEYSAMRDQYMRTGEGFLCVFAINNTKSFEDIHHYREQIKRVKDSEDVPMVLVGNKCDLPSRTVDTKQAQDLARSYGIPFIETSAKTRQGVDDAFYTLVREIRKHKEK
protocol: SOS-catalyzed nucleotide exchange assay (GNE), TR-FRET
Format: biochemical
conditions: biotinylated KRAS G12D, SOS and GTP, 60-minute incubation
Counter-ions that a name gives are not always drawn.
measurement label: IC50 (nM)
Numbers only, in nM.

In the examples that follow, each entry is paired with its recorded IC50.
>>> endpoint_value("C#Cc1cccc2cccc(-c3c(F)cc4c(N5CC6(C)CCC(C)(C5)N6)nc(OC[C@@]56CCCN5C[C@H](F)C6)nc4c3F)c12 (single isomer, unassigned) [Ex. 190a, TFA]")
2510
>>> endpoint_value("CCc1cnn2cc(O)cc(-c3c(F)cc4c(N5C[C@H]6CC[C@@](C)(C5)N6)nc(OC[C@@]56CCCN5C[C@H](F)C6)nc4c3F)c12")
98.5
>>> endpoint_value("CC[C@H]1N[C@H]2CC[C@@H]1N(c1nc(OCC3(CN(C)C)CC3)nc3c(F)c(-c4cc(O)cc5ccccc45)c(Cl)cc13)C2")
46.7
>>> endpoint_value("Cc1cc(N)nc(-c2c(F)cc3c(N4CC5CCC(C4)N5)nc(OC[C@@]45CCCN4C[C@H](F)C5)nc3c2F)c1C(F)(F)F (mixture of isomers)")
10.3
>>> endpoint_value("COCCOCC1CCN(C[C@@]2(COc3nc(N4CC5CC[C@@](C)(C4)N5)c4cc(F)c(-c5c(C(F)(F)F)c(C)cc6[nH]ncc56)c(F)c4n3)CC2(F)F)C1 (single isomer, unassigned)")
8.84

I need IC50 for every entry listed below, if you could help.
1. Cc1cc2[nH]ncc2c(C2Cc3nc(OCC4(CN5CC[C@@H](F)C5)CC4)nc(N4C[C@H]5CC[C@@](C)(C4)N5)c3C(=O)N2)c1C(F)(F)F (single isomer, unassigned) [Ex. 98a]
2. COC1CC2CN(c3nc(OCC4(CN(C)C)CC4)nc4c(F)c(-c5cc(O)cc6ccccc56)c(F)cc34)CC1N2 (stereo not shown) [Example 25]
3. C#Cc1cccc2nc(N)nc(-c3c(F)cc4c(N5C[C@H]6CC[C@@H](C5)N6)nc(OC[C@@]56CCCN5C[C@H](F)C6)nc4c3F)c12
4. CN(C)CC1(COc2nc(N3CC4CCC(C3)N4)c3cc(Cl)c(-c4cc(C(F)(F)F)cc5[nH]ncc45)c(F)c3n2)CC1

1. 380
2. 454
3. 91.7
4. 4030

# batch size: 6; output IC50 per entry
1. CNc1cc(C)c(C(F)(F)F)c(-c2c(F)cc3c(N4CC5CCC(C4)N5)nc(OCC4(CN5CCOCC5)CC4)nc3c2F)n1 (single isomer, unassigned) [Ex. 137b]
2. Cc1n[nH]c2ncc(C(F)(F)F)c(-c3c(F)cc4c(N5C[C@H]6CC[C@@H](C5)N6)nc(OC[C@@]56CCCN5C[C@H](F)C6)nc4c3F)c12
3. C[C@]12CC[C@H](CN(c3nc(OC[C@@H]4CCNC4)nc4c(F)c(-c5cc(O)cc6ccccc56)c(Cl)cc34)C1)N2 [Example 122, TFA]
4. C[C@]12CC[C@H](CN(c3nc(OCC4(CN5CCOCC5)CC4)nc4c(F)c(-c5c(F)cc(F)c6ccc(N)nc56)c(Cl)cc34)C1)N2 (single isomer, unassigned) [Ex. 91b]
5. C#Cc1c(F)ccc2cccc(-c3c(F)cc4c(N5C[C@H]6CC[C@@](C)(C5)N6)nc(OC[C@@]56CCCN5[C@H](CF)CC6)nc4c3F)c12 (single isomer, unassigned)
6. CN1CCC[C@H]1COc1nc(N2C[C@H]3CC[C@@](C)(C2)N3)c2cc(F)c(-c3cc(O)cc4cccc(Cl)c34)c(F)c2n1

1: 4820; 2: 64; 3: 964; 4: 1020; 5: 103; 6: 732

// each compound listed below needs its IC50
1. C[C@]12CCC(CN(c3nc(OC[C@]4(CN[C@@H]5CC[C@H](O)C5)CC4(F)F)nc4c(F)c(-c5cc(O)cc6cccc(Cl)c56)c(F)cc34)C1)N2 (single isomer, unassigned) [Ex. 219b]
2. Nc1cc(F)c(C(F)(F)F)c(-c2c(F)cc3c(N4CC5CCC(C4)N5)nc(OC[C@@]45CCCN4C[C@H](F)C5)nc3c2F)c1F (single isomer, unassigned) [Ex. 145b]
3. Cc1cc2[nH]nc(C)c2c(-c2c(F)cc3c(N4C[C@H]5CC[C@@](C)(C4)N5)nc(OCC4(CN5CC[C@@H](F)C5)CC4)nc3c2F)c1C
4. Cc1cc2cnn(C)c2c(-c2c(F)cc3c(N4C[C@H]5CC[C@@H](C4)N5)nc(OC[C@@]45CCCN4C[C@H](F)C5)nc3c2F)c1C(F)(F)F [251a]
5. C[C@@]12CC[C@H](CN(c3nc(OC[C@@]45CCCN4C[C@H](F)C5)nc4c(F)c(-c5cc(O)cc6ccc(F)c(Cl)c56)c(F)cc34)C1)N2 (single isomer, unassigned) [Ex. 176a]
6. CN(C)C1CC[C@H]2C[C@@]12COc1nc(N2C[C@H]3CC[C@@](C)(C2)N3)c2cc(F)c(-c3cc(O)cc4ccccc34)c(F)c2n1 (single isomer, unassigned) [Example 12b]
7. CC(O)(COc1nc(N2CC3CC[C@@](C)(C2)N3)c2cc(F)c(-c3cc(O)cc4cccc(Cl)c34)c(F)c2n1)CN1CC[C@@H](F)C1 (single isomer, unassigned) [Ex. 209]

627
14.1
255
5.15
1.91
2.07
46.1
